src = ChEMBL document CHEMBL2086343

target: hERG (KCNH2) (Homo sapiens); assay: Displacement of [3H]astemizole from human hERG transfected in HEK293 cells at 10 uM after 1 hr by scintillation counter; assay type: cell-based; details: HEK293 cells transfected with human hERG, probe [3H]astemizole
Sequence (Q12809 whole entry): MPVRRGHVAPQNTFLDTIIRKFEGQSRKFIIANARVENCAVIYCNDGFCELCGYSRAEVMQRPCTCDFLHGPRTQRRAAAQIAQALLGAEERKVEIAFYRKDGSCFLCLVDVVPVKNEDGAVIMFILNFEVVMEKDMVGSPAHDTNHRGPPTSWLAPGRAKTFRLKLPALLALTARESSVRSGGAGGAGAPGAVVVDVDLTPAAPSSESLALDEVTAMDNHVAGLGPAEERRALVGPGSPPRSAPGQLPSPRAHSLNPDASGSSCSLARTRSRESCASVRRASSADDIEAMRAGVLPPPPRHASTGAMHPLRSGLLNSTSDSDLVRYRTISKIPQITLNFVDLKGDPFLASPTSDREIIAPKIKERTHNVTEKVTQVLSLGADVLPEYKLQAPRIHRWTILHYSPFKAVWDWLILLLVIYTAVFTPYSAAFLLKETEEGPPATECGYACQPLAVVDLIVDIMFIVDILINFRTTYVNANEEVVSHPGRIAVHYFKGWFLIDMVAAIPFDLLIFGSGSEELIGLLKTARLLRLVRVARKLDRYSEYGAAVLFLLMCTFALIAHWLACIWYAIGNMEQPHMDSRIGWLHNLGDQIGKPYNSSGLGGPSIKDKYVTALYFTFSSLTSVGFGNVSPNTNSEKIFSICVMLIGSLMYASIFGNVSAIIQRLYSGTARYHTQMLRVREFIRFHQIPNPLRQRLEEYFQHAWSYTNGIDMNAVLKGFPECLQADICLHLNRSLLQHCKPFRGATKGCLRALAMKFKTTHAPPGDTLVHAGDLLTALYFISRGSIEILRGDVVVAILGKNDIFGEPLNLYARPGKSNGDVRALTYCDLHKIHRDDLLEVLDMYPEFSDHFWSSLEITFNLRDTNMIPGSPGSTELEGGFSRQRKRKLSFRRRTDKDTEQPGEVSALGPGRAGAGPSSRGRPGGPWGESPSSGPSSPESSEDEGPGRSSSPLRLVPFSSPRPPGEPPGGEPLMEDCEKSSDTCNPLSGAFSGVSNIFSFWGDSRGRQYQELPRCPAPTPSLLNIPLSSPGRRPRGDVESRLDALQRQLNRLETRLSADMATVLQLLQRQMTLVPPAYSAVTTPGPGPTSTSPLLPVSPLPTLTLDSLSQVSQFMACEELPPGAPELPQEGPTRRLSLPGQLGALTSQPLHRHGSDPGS
Answer Not fulfilled if inhibition at 1 h, 10 µM is under 50%, and Fulfilled if it is 50% or more.

Worked examples, 6 compounds total:
[[record]]
line_notation = "COc1cccc(/C=C/c2ccc(C(=O)Nc3cc(C(=O)Nc4cc(C(=O)NCCO)n(C)c4)n(C)c3)cc2)c1"
experimental_target = "hERG (KCNH2) (Homo sapiens)"
classification = "Not fulfilled"

[[record]]
line_notation = "Cn1cc(NC(=O)c2cc(NC(=O)c3ccc(/C=C/c4cnc5ccccc5c4)cc3)cn2C)cc1C(=O)NCCN1CCOCC1"
experimental_target = "hERG (KCNH2) (Homo sapiens)"
classification = "Fulfilled"

[[record]]
line_notation = "Cn1cc(NC(=O)c2cc(NC(=O)c3ccc(/C=C/c4cnc5ccccc5c4)cc3)cn2C)cc1C(=O)NCCNC(=O)C(F)(F)F"
experimental_target = "hERG (KCNH2) (Homo sapiens)"
classification = "Not fulfilled"

[[record]]
line_notation = "COc1cccc(/C=C/c2ccc(C(=O)Nc3cc(C(=O)Nc4cc(C(=O)NCCNC(=N)N)n(C)c4)n(C)c3)cc2)c1"
experimental_target = "hERG (KCNH2) (Homo sapiens)"
classification = "Fulfilled"

[[record]]
line_notation = "COc1ccc(/C=C/c2ccc(C(=O)Nc3cc(C(=O)Nc4cc(C(=O)NCCN5CCOCC5)n(C)c4)n(C)c3)cn2)cc1"
experimental_target = "hERG (KCNH2) (Homo sapiens)"
classification = "Fulfilled"

[[record]]
line_notation = "COc1cccc(/C=C/c2ccc(C(=O)Nc3cc(C(=O)Nc4cc(C(=O)NCCNC(=O)OC(C)(C)C)n(C)c4)n(C)c3)cc2)c1"
experimental_target = "hERG (KCNH2) (Homo sapiens)"
classification = "Not fulfilled"


Challenge: Could you please find out whether COc1cccc(/C=C/c2ccc(C(=O)Nc3cc(C(=O)Nc4cc(C(=O)NCCN5CCOCC5)n(C)c4)n(C)c3)cc2)c1 has inhibition at 1 h, 10 µM that meets 50% or exceeds it?
Response given: Fulfilled

Challenge: Confirm if inhibition at 1 h, 10 µM reported for the compound CN(C)CCCNC(=O)c1cc(NC(=O)c2cc(NC(=O)c3ccc(/C=C/c4cnc5ccccc5c4)cc3)cn2C)cn1C is 50% or above.
Response given: Fulfilled

Challenge: Tell me whether inhibition at 1 h, 10 µM is at least 50% here: CN/C(=N\C#N)NCCNC(=O)c1cc(NC(=O)c2cc(NC(=O)c3ccc(/C=C/c4cccc(OC)c4)cc3)cn2C)cn1C
Response given: Fulfilled

Challenge: Does inhibition at 1 h, 10 µM meet or surpass 50% for CN/C(=N\C#N)NCCNC(=O)c1cc(NC(=O)c2cc(NC(=O)c3ccc(/C=C/c4cnc5ccccc5c4)cc3)cn2C)cn1C ?
Response given: Fulfilled

Challenge: Item Cn1cc(NC(=O)c2cc(NC(=O)c3ccc(/C=C/c4cnc5ccccc5c4)cc3)cn2C)cc1C(=O)NCCN with inhibition at 1 h, 10 µM of 50% or above?
Response given: Fulfilled
